Every entry's value here was drawn from ChEMBL document CHEMBL3507680.

Assay: Human HepG2 cell viability assay in 384 well format
Assay type: toxicity, cell-based
Design: dose 125 nL, time 70.5 hour; concentration not given beside the values
Conditions: HepG2 cells, read-out: Inhibition
Value Type: cytotoxicity at 70.5 h (%)
Return type: number; implicit unit %.

Would you please look over these solved cases?
# Compound, Unit Of Measurement, cytotoxicity at 70.5 h
rows = [
    ("CC(C)C(=O)NCCNC(=O)C(C)OCC(F)(F)F (stereo unspecified)", "%", -8.9),
    ("Fc1cnc(N2CCn3c(CN4CCCC4)nnc3C2)nc1", "%", -9.62),
    ("COCCN1CCO[C@H]2[C@H](OCc3cccc(C)n3)CC[C@@H]21", "%", -2.63),
    ("COc1cccc(N2CCN(CCC(=O)NC3CCCC3)CC2)c1", "%", -5.97),
    ("COCc1nn(C(C)C)c2c1CCN(Cc1ccoc1)C2", "%", -6.52),
]

Find the measured cytotoxicity at 70.5 h of `O=C(C1CCC1)N1C[C@@H]2CC[C@H](C1)N(S(=O)(=O)c1ccccc1)C2` and report it. -8.37

Find the measured cytotoxicity at 70.5 h of CC(C)c1nnc(NC(=O)NC2CCOc3ccccc32)s1 (stereo unspecified) and report it. -2.44
